Origin of measurements: ChEMBL document CHEMBL1139829

- systemName: CYP2D6 (Homo sapiens)
- Sequence (P10635 whole entry): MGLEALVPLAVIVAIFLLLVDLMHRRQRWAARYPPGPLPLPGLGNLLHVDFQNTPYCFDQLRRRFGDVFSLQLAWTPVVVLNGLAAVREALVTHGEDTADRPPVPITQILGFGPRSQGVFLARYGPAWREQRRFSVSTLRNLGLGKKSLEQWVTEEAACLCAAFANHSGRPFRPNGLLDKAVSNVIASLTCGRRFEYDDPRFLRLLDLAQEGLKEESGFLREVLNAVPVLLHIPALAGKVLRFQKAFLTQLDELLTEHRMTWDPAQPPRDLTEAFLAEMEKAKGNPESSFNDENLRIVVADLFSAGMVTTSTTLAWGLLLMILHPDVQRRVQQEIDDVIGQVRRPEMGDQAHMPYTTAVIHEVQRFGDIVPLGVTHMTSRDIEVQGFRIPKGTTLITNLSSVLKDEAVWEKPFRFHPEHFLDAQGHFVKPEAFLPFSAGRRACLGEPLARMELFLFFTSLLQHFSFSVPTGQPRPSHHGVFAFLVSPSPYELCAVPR
- experimentNotes: Inhibition of CYP2D6 at 1 uM
- Assay type: ADME
observedProperty: inhibition at 1 µM (%)
Give just the numeric value; % need not be written.

**Q:** Name the reported inhibition at 1 µM value associated with the compound CC(C)(C)c1ccc(S(=O)(=O)N2CCC3=CC(=O)CCC3(Cc3ccc(-c4ccncc4)cc3)C2)cc1 (racemic)
**A:** 44

---

- systemName: UniProt P04150
- experimentNotes: Displacement of [3H]dexamethasone from human glucocorticoid receptor expressed in recombinant baculovirus
Lab note: anything with Ki below 0.1 µM is marked TRUE; values at 0.1 µM or higher are marked FALSE.

INSERT INTO assay_data (compound, systemname, qualitativelabel) VALUES
  ('COc1ccc(S(=O)(=O)N2CCC3=CC(=O)CCC3(Cc3ccccc3)C2)cc1OC (racemic)', 'UniProt P04150', 'FALSE'),
  ('CS(=O)(=O)c1ccc(S(=O)(=O)N2CCC3=CC(=O)CCC3(Cc3ccccc3)C2)cc1 (racemic)', 'UniProt P04150', 'FALSE'),
  ('COc1cccc(CC23CCC(=O)C=C2CCN(S(=O)(=O)c2ccc(C(C)(C)C)cc2)C3)c1 (configuration not stated)', 'UniProt P04150', 'TRUE'),
  ('O=C1C=C2CCN(S(=O)(=O)c3ccccc3)CC2(Cc2ccccc2)CC1 (racemic)', 'UniProt P04150', 'FALSE'),
  ('O=C1C=C2CCN(S(=O)(=O)c3cccc(Cl)c3)CC2(Cc2ccccc2)CC1 (racemic)', 'UniProt P04150', 'FALSE');

**Q:** Lab note: Ki threshold 0.1 µM. Does this compound come in strictly under it? CS(=O)(=O)Nc1ccccc1S(=O)(=O)N1CCC2=CC(=O)CCC2(Cc2ccccc2)C1 (racemic)
**A:** FALSE

**Q:** Would you kindly verify if Ki of COc1ccc(S(=O)(=O)N2CCC3=CC(=O)CCC3(Cc3ccccc3)C2)cc1 (racemic) is strictly less than 0.1 µM?
**A:** FALSE

**Q:** Determine if CC(C)(C)c1ccc(S(=O)(=O)N2CCC3=CC(=O)CCC3(Cc3ccc(Br)cc3)C2)cc1 (configuration not stated) shows Ki strictly lower than 0.1 µM.
**A:** TRUE

**Q:** Criterion: Ki strictly below 0.1 µM. Is it met by CS(=O)(=O)Nc1ccc(S(=O)(=O)N2CCC3=CC(=O)CCC3(Cc3ccccc3)C2)cc1 (racemic) ?
**A:** FALSE

**Q:** Does the reported Ki of the following compound sit strictly below 0.1 µM? COc1ccc(CC23CCC(=O)C=C2CCN(S(=O)(=O)c2ccc(C(C)(C)C)cc2)C3)cc1 (racemic)
**A:** TRUE

---

Each entry below lists one item and its recorded pKi value.
- systemName: Glucocorticoid receptor (Homo sapiens)
- Sequence (P04150 whole entry): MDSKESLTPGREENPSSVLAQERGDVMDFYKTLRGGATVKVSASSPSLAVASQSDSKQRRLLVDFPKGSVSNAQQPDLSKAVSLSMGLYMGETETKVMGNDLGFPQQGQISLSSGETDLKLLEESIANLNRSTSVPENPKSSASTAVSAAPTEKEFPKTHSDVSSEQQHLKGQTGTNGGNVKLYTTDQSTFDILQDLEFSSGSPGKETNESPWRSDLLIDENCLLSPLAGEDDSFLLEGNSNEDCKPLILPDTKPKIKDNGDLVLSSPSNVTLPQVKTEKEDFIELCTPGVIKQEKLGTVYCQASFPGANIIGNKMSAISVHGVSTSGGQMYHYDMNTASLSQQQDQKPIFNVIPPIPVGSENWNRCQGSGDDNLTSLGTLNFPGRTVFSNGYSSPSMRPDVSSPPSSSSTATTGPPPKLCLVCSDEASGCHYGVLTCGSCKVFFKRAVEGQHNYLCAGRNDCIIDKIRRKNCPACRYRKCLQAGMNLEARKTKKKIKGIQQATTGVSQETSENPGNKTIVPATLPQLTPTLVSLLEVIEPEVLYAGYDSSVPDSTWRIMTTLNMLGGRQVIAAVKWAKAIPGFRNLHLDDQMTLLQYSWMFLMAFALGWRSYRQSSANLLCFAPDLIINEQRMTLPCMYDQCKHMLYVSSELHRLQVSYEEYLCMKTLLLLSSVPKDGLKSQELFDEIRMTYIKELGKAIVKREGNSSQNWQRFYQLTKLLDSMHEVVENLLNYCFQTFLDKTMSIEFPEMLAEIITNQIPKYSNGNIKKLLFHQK
- experimentNotes: Antagonist activity at human glucocorticoid receptor in SW1353 cells assessed as inhibition of dexamethasone-induced luciferase expression by MMTV5 reporter gene assay
- Type: functional, cell-based
# reply with the number alone; pKi is -log10 of concentration in mol/L

Past entries and their recorded results:
INSERT INTO assay_data (compound, observedproperty, result) VALUES
  ('COc1ccc(CC23CCC(=O)C=C2CCN(S(=O)(=O)c2ccc(C(C)(C)C)cc2)C3)cc1 (racemic)', 'pKi', 6.64),
  ('CC(C)(C)c1ccc(S(=O)(=O)N2CCC3=CC(=O)CCC3(Cc3ccc(N4CCOCC4)cc3)C2)cc1 (stereo unspecified)', 'pKi', 6.40);

**Q:** Which pKi is reported for this compound? `COc1ccc(C[C@]23CCC(=O)C=C2CCN(S(=O)(=O)c2ccc(C(C)(C)C)cc2)C3)cc1`
**A:** 6.70
